- System: T-47D breast
- run description: NCI tumour cell line growth inhibition, 48 h
quantity kind: TGI

INSERT INTO assay_data (compound, tested_system, quantity_kind, reading) VALUES
  ('CC(C)OC(=O)c1cc(NC(=S)OC(C)C)ccc1Cl', 'T-47D breast', 'TGI', '> 57.6 µM'),
  ('Nc1ncnc2c1ncn2CCCNO', 'T-47D breast', 'TGI', '> 100 µM'),
  ('CC(=O)OCCc1cc2ccccc2oc1=O', 'T-47D breast', 'TGI', '> 100 µM'),
  ('CCCCCCC1CCCCN1C(c1ccccc1)C(O)c1ccccc1 (configuration not stated)', 'T-47D breast', 'TGI', '19.1 µM'),
  ('NCC[PH+](c1ccccc1)c1ccccc1.NCC[PH+](c1ccccc1)c1ccccc1.[Cl-].[Pt+4]', 'T-47D breast', 'TGI', '> 100 µM'),
  ('CCOC(=O)/C(=C/c1cn(C(C)=O)c2ccccc12)P(=O)(OC)OC', 'T-47D breast', 'TGI', '60.5 µM'),
  ('CCOc1ccc(Nc2nc(N)nc(N)c2N=O)cc1', 'T-47D breast', 'TGI', '> 100 µM'),
  ('COC(=O)c1sc2c(Cl)c(Cl)sc2c1Cl', 'T-47D breast', 'TGI', '> 100 µM'),
  ('CCOC(=O)NCC(=O)NCC(=O)NCC(N)=O', 'T-47D breast', 'TGI', '> 100 µM'),
  ('c1ccc2[nH]c(-c3cscn3)nc2c1', 'T-47D breast', 'TGI', '> 100 µM'),
  ('OCCN1CCCN(CCCN2c3ccccc3Sc3ccc(C(F)(F)F)cc32)CC1', 'T-47D breast', 'TGI', '5.39 µM'),
  ('CCn1c(-c2cc3ccccc3cc2OC(C)=O)n[nH]c1=S', 'T-47D breast', 'TGI', '43.3 µM');
